assay: Inhibition of HPV11 E1-E2 protein-protein interaction by E1-E2-ori-complex formation assay
Measurement label: IC50 (nM)

I: Cc1cc2c(s1)C(=O)[C@]1(O[C@@H](c3ccc(Br)c(Br)c3)[C@@H](C(=O)Nc3ccc(N4CCOCC4)cc3)[C@H]1C(=O)O)C2=O
II: O=C(Nc1ccc2c(c1)OCO2)[C@H]1[C@H]2C(=O)O[C@]3(O)c4ccccc4C(=O)[C@]23O[C@H]1c1ccc(Cl)cc1
III: CC(=O)Nc1ccc(NC(=O)[C@H]2[C@@H](C(=O)O)C3(O[C@H]2c2ccc(Cl)c(Cl)c2)C(=O)c2ccccc2C3=O)cc1
[in] With the 3 molecules above, produce a list ordered by ascending IC50. // rank by listing labels in the order requested
[out] I, III, II
(I: 6 nM, III: 440 nM, II: 6600 nM)

###

test: Inhibition of HPV11 E1-E2 protein-protein interaction by E1-E2-ori-complex formation assay
Measurement label: IC50 (nM)

Please review the following examples before continuing.
Molecule: O=C(Nc1ccc2c(c1)OCO2)[C@H]1[C@@H](C(=O)O)C2(O[C@H]1c1ccc(Cl)cc1)C(=O)c1ccccc1C2=O
Experimental value: 7800

Molecule: CC(=O)Nc1ccccc1NC(=O)[C@H]1[C@@H](C(=O)O)C2(O[C@H]1c1ccc(Cl)c(Cl)c1)C(=O)c1ccccc1C2=O
Experimental value: 65000

Molecule: O=C(Nc1ccc(-c2csnn2)cc1)[C@H]1[C@@H](C(=O)O)C2(O[C@H]1c1ccc(Cl)c(Cl)c1)C(=O)c1ccccc1C2=O
Experimental value: 150

Molecule: O=C(Nc1ccccc1)[C@H]1[C@@H](C(=O)O)C2(O[C@H]1c1ccc(Cl)c(Cl)c1)C(=O)c1ccccc1C2=O
Experimental value: 680

Molecule: Cc1ccc2c(c1)C(=O)[C@@]1(O[C@@H](c3ccc(Cl)c(Cl)c3)[C@@H](C(=O)Nc3ccc(-c4csnn4)cc3)[C@H]1C(=O)O)C2=O
Experimental value: 180

A: O=C(NCc1ccccc1)[C@H]1[C@@H](C(=O)O)C2(O[C@H]1c1ccc(Cl)c(Cl)c1)C(=O)c1ccccc1C2=O
B: CC(C)(C)NC(=O)[C@H]1[C@@H](C(=O)O)C2(O[C@H]1c1ccc(Cl)c(Cl)c1)C(=O)c1ccccc1C2=O
C: O=C(Nc1ccc(N2CCOCC2)cc1)[C@H]1[C@@H](C(=O)O)C2(O[C@H]1c1ccc(Br)c(Br)c1)C(=O)c1ccccc1C2=O (stereo in doubt; 21)
D: CC(=O)c1ccc(NC(=O)[C@H]2[C@@H](C(=O)O)C3(O[C@H]2c2ccc(Cl)c(Cl)c2)C(=O)c2ccccc2C3=O)cc1
[in] Place the items in sequence of falling IC50. // rank by listing labels in the order requested
[out] A, B, D, C

###

test: Inhibition of HPV11 E1-E2 protein-protein interaction by E1-E2-ori-complex formation assay
pIC50: −log10 of the molar value.
Measurement label: pIC50

Please review the following examples before continuing.
Structure as smiles: Cc1cc2c(s1)C(=O)[C@@]1(O[C@@H](c3ccc(Br)c(Br)c3)[C@@H](C(=O)Nc3ccc(N4CCOCC4)cc3)[C@H]1C(=O)O)C2=O
Measurement label: pIC50
Experimental value: 6.34
//
Structure as smiles: C[C@@H](NC(=O)[C@H]1[C@H]2C(=O)O[C@]3(O)c4ccccc4C(=O)[C@]23O[C@H]1c1ccc(Cl)c(Cl)c1)c1ccccc1
Measurement label: pIC50
Experimental value: 5.17

a: O=C(Nc1ccc2c(c1)OCO2)[C@H]1[C@@H](C(=O)O)C2(O[C@H]1c1ccc(Cl)c(Cl)c1)C(=O)c1ccccc1C2=O
b: CC(=O)Nc1cccc(NC(=O)[C@H]2[C@@H](C(=O)O)C3(O[C@H]2c2ccc(Cl)c(Cl)c2)C(=O)c2ccccc2C3=O)c1
[in] Consider a and b . Which of these has its pIC50 at a higher number? Identify your pick by its label.
[out] a

###

test: Inhibition of HPV11 E1-E2 protein-protein interaction by E1-E2-ori-complex formation assay
Measurement label: IC50 (nM)

a: O=C(Nc1ccc(N2CCOCC2)cc1)[C@H]1[C@@H](C(=O)O)C2(O[C@H]1c1ccc(Cl)c(Cl)c1)C(=O)c1ccccc1C2=O
b: O=C(Nc1ccc(N2CCOCC2)cc1)[C@H]1[C@@H](C(=O)O)C2(O[C@H]1c1ccc(Br)c(Br)c1)C(=O)c1ccccc1C2=O (stereo in doubt; 19)
c: O=C(Nc1ccc(N2CCOCC2)cc1)[C@H]1[C@@H](c2ccc(Br)c(Br)c2)OC2(C(=O)c3ccccc3C2=O)[C@H]1C(=O)O
[in] Order all 3 entries above by recorded IC50, highest first, lowest last. // rank by listing labels in the order requested
[out] c, a, b
